Origin of values: patent US12565504B2

Target: OGA (S400 O-GLCNAC) (Homo sapiens (Human), UniProt O60502)
Sequence (O60502 whole entry): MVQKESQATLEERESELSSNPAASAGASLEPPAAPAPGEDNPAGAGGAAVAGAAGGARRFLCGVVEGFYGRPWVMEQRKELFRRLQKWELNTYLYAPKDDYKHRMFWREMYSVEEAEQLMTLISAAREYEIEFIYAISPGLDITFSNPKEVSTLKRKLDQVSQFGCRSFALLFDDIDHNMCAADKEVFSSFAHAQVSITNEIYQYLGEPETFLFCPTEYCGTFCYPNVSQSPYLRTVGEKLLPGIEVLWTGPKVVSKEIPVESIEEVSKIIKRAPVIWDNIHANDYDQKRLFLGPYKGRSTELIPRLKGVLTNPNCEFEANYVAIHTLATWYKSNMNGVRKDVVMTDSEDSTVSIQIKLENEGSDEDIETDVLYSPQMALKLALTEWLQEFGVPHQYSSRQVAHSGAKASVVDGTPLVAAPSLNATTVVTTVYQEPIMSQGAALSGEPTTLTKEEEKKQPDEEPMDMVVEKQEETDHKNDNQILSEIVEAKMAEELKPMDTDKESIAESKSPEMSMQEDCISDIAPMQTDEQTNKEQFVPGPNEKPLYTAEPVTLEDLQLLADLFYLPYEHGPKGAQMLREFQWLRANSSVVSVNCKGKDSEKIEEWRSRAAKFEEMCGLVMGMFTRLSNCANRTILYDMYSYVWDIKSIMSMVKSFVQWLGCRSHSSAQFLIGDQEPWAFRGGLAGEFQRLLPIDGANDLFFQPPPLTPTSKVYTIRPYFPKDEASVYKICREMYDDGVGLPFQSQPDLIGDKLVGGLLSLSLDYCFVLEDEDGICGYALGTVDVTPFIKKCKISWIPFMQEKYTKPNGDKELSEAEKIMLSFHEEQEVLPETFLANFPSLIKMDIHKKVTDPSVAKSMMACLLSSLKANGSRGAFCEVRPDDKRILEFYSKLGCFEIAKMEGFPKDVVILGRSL
Test: Cellular OGA-Tau MSD Assay
Conditions: HEK-293T cells transfected with OGT and Tau-V5; Tau-S400-GlcNAc MSD readout
Measure name: IC50 (nM)

Some molecules with known IC50 results, for comparison:
molecule="CC(=O)Nc1nc(F)c(CN2C[C@@]3(Cc4cc(NC5CC5)ncc4O3)C[C@@H]2C)s1 [Example 31]" target_of_assay="OGA (S400 O-GLCNAC) (Homo sapiens (Human), UniProt O60502)" value_reported=15
molecule="CC(=O)Nc1ncc(CN2C[C@@]3(Cc4cc(C(F)(F)F)ncc4O3)C[C@@H]2C)s1 [Example 22]" target_of_assay="OGA (S400 O-GLCNAC) (Homo sapiens (Human), UniProt O60502)" value_reported=25
molecule="COc1cc2c(cn1)[C@@]1(C[C@H](C)N(Cc3sc(NC(C)=O)nc3F)C1)OC2 (single isomer, unassigned) [Example 75-b]" target_of_assay="OGA (S400 O-GLCNAC) (Homo sapiens (Human), UniProt O60502)" value_reported=24
molecule="CC(=O)Nc1nc(F)c(CN2CC3(C[C@@H]2C)OCc2cccnc23)s1 (stereo partly drawn) [Example 63]" target_of_assay="OGA (S400 O-GLCNAC) (Homo sapiens (Human), UniProt O60502)" value_reported=57
molecule="CC(=O)Nc1ncc(CN2C[C@@]3(Cc4ccccc4O3)C[C@@H]2C)s1 [Example 2]" target_of_assay="OGA (S400 O-GLCNAC) (Homo sapiens (Human), UniProt O60502)" value_reported=41

(I) COc1nccc2c1COC21C[C@H](C)N(Cc2sc(NC(C)=O)nc2F)C1 (stereo partly drawn) [Example 77]
(II) COc1cc2c(cn1)[C@]1(C[C@H](C)N(Cc3sc(NC(C)=O)nc3F)C1)OC2 (single isomer, unassigned) [Example 75-a]
(III) CC(=O)Nc1ncc(CN2CCC3(Cc4ccccc4O3)C2)s1 (stereo not drawn) [Example 3]
Please order the records by their reported IC50, lowest number first. Output the labels ranked as instructed.
I, II, III

---

Molecular target: Recombinant full length human OGA enzyme (Homo sapiens (Human))
Sequence (O60502 whole entry): as above
Assay: OGA Enzyme Inhibition Biochemical Assay
Conditions: 1 nM OGA, 100 μM 4-MUGlcNAc, 90 minutes, pH 6.4
Measure name: IC50 (nM)

compound="COc1nccc2c1COC21C[C@H](C)N(Cc2cnc(NC(C)=O)s2)C1 (stereo partly shown)" measure_name=IC50 value_reported=65
compound="CC(=O)Nc1nc(F)c(CN2C[C@]3(C[C@@H]2C)OCc2ccncc23)s1 (single isomer, unassigned)" measure_name=IC50 value_reported=110

(P) CC(=O)Nc1ncc(CN2CCC3(Cc4cc(Cl)ccc4O3)C2)s1 (stereo not shown)
(Q) CC(=O)Nc1nc(F)c(CN2CCCC3(C2)OCc2ccncc23)s1 (stereo not shown)
Please tell me which of the two, P or Q , has the higher reported IC50 value. Mark your answer with the label of the selected entry.
P
(P: 150 nM, Q: 9.2 nM)

---

Assay: Rat Liver Microsome Stability Assay
Details: rat liver microsomes 0.5 mg/mL, compound 1 μM; Qh 55 mL/minute/kg
Measure name: RLM % Qh (%)

Some molecules with known RLM % Qh (%) results, for comparison:
molecule="CC(=O)Nc1nc(F)c(CN2CCCC3(C2)OCc2ccncc23)s1 (centres unmarked)" unit_text=% value_reported=78
molecule=CC(=O)Nc1ncc(CN2C[C@@]3(Cc4cc(Cl)ncc4O3)C[C@@H]2C)s1 unit_text=% value_reported=70
molecule="CC(=O)Nc1ncc(CN2CCC3(Cc4ccccc4O3)C2)s1 (centres unmarked)" unit_text=% value_reported=81
molecule="CC(=O)Nc1ncc(CN2CCCC3(CCCO3)C2)s1 (centres unmarked)" unit_text=% value_reported=74
molecule=CC(=O)Nc1nc(F)c(CN2C[C@@]3(Cc4cc(C(F)F)ncc4O3)C[C@@H]2C)s1 unit_text=% value_reported=51

(a) CC(=O)Nc1ncc(CN2CCC3(C2)OCc2ccccc23)s1 (centres unmarked)
(b) COc1cc2c(cn1)[C@]1(C[C@H](C)N(Cc3sc(NC(C)=O)nc3F)C1)OC2 (single isomer, unassigned)
(c) CC(=O)Nc1nc(F)c(CN2C[C@@]3(Cc4cc(=O)n(C)cc4O3)C[C@@H]2C)s1
Thanks in advance: please rank these 3 entries by RLM % Qh (%), highest to lowest. Output the labels ranked as instructed.
a, b, c
(a: 88%, b: 59%, c: 16%)
